Entries and their growth inhibition
# Method Notes: NCI Yeast Anticancer Drug Screen. Data for the mlh1 rad18 strain (AID 175)
# Test Context: S. cerevisiae mlh1 rad18 strain growth inhibition; at 50.0 µM; active compounds read high
About 79,000 compounds went through this panel and 15% of them were active in at least one assay; those are over-represented in the sample as a whole.
Respond with the bare value in %.

Answered cases to consult:
O=P(O)(NCCCl)NCCCl = -39.5
O=C(O)CNCP(=O)(O)O = -20
CN(C)c1ccc(C(c2c(O)c3ccc(O)cc3oc2=O)c2c(O)c3ccc(O)cc3oc2=O)cc1 = 11.4
CO/C(=N/N1CC1C(F)(F)F)c1ccncc1 (stereo not drawn) = 8
CC(C)=CC1CC(=[N+]=[N-])C(=O)C1(C)C (stereo not drawn) = 28.6

Query block: Name the reported growth inhibition value associated with the compound C[N+]1(C)C2CCC1CC(O)C2 (stereo not drawn)
Result block: 3.6

Query block: Name the reported growth inhibition value associated with the compound CCOc1ccc(/C=C/c2cc(OC)c(OC)c(OC)c2)cc1
Result block: -34.2

Query block: Name the reported growth inhibition value associated with the compound CCCCCCN(CCCCCC)C1C=CCCC1 (stereo not drawn)
Result block: -4.15
